Target: Mannose-6-phosphate isomerase (Homo sapiens)
Assay: MPI inhibition at elevated mannose 6-phosphate – biochemical, fluorescence intensity, high mannose 6-phosphate, primary screen (AID 1220)
Conditions: recombinant PMI enzyme, coupled fluorescence intensity; at 20 µM
In all, about 190,000 compounds went through this assay and about 1,300 (0.68%) were called active. No stated cut-off is given here; in the data, active means inhibition above about 50%; inactive means the rest. This is one part of a sample in which actives are shown more often than they occur.
Possible outcomes: active, inactive

>  <compound>
Cc1ccc(OCC(=O)c2cc(C)n(Cc3cccs3)c2C)c([N+](=O)[O-])n1

>  <assignedCategory>
inactive

$$$$
>  <compound>
CCOC(=O)/C(C#N)=C/c1cc2ccccc2nc1Cl

>  <assignedCategory>
inactive

$$$$
>  <compound>
CCOC(=O)c1c(C)oc2c1c(C(c1ccncc1)N1CCOCC1)c(O)c1ccccc12 (stereo not given)

>  <assignedCategory>
inactive

$$$$
>  <compound>
CCOC(=O)c1c(C)oc2cc(Br)c(OC(=O)N3CCOCC3)cc12

>  <assignedCategory>
inactive

$$$$
>  <compound>
CC(=O)Nc1ccccc1OCC(=O)c1cc(C)n(Cc2cccs2)c1C

>  <assignedCategory>
inactive

$$$$
>  <compound>
Cc1cc2cc(C=C(C#N)C#N)c(Cl)nc2cc1C

>  <assignedCategory>
active

$$$$
>  <compound>
Oc1ccccc1NCC(O)Cn1ccc2ccccc21 (stereo not given)

>  <assignedCategory>
active

$$$$
>  <compound>
CN(C)c1ccc(C(=S)N2CCN(C(=S)Nc3cccc4ccccc34)CC2)cc1

>  <assignedCategory>
active

$$$$
>  <compound>
CC(C)(C)c1nn(-c2ccccc2)c2nc(Cl)c(C=O)cc12

>  <assignedCategory>
inactive

$$$$
>  <compound>
O=C(N/N=C\c1cccc([N+](=O)[O-])c1O)C1COc2ccccc2O1 (stereo not given)

>  <assignedCategory>
inactive

$$$$
>  <compound>
CCOC(=O)/C(C#N)=C/c1cc2ccc(C)cc2nc1Cl

>  <assignedCategory>
inactive

$$$$
>  <compound>
COc1cccc(NC(=O)CSCC(=O)O)c1

>  <assignedCategory>
inactive

$$$$
>  <compound>
COc1cc(OC)c(C2C(C#N)=C(N)Oc3cc(C)n(CCCN4CCOCC4)c(=O)c32)cc1OC (stereo not given)

>  <assignedCategory>
active

$$$$
>  <compound>
O=C(COc1cccnc1[N+](=O)[O-])NCc1ccco1

>  <assignedCategory>
active

$$$$
>  <compound>
CCOC(=O)c1c(C)oc2c1c(C(c1cccnc1)N1CCN(C)CC1)c(O)c1ccccc12 (stereo not given)

>  <assignedCategory>
inactive

$$$$
>  <compound>
O=C(N/N=C/c1ccc(-c2ccccc2[N+](=O)[O-])o1)[C@H]1C[C@@H]1c1ccccc1

>  <assignedCategory>
active

$$$$
>  <compound>
OCCNCC(O)Cn1ccc2ccccc21 (stereo not given)

>  <assignedCategory>
inactive

$$$$
>  <compound>
CCOc1ncccc1C(=O)OCC(=O)c1cc(C)n(Cc2ccco2)c1C

>  <assignedCategory>
inactive

$$$$
>  <compound>
CCOC(=O)c1c(C)oc2ccc(O)c(CN3CCCCC3)c12

>  <assignedCategory>
inactive

$$$$
>  <compound>
Cc1cc2cc(C=O)c(Cl)nc2cc1C

>  <assignedCategory>
active

$$$$
>  <compound>
O=C(N/N=C/c1ccco1)C1CC1c1ccccc1 (stereo not given)

>  <assignedCategory>
inactive

$$$$
>  <compound>
CC(C)NC(=O)c1ccccc1NC(=O)Cc1ccc(Cl)cc1

>  <assignedCategory>
inactive

$$$$
>  <compound>
O=C(CCN1C(=O)c2cccnc2C1=O)NC1CCCCCC1

>  <assignedCategory>
inactive

$$$$
>  <compound>
Cc1cc(NN)nc(NS(=O)(=O)c2ccccc2)n1

>  <assignedCategory>
inactive

$$$$
>  <compound>
CN(C)c1nc(OCCOC(=O)c2ccccc2)nc(N(C)C)n1

>  <assignedCategory>
inactive

$$$$
>  <compound>
Cc1nn(-c2ccccc2)c(C)c1C(=O)OCC(=O)c1c(N)n(CC(C)C)c(=O)n(C)c1=O

>  <assignedCategory>
inactive

$$$$
>  <compound>
COc1ccc(-n2cc(CNCCCn3ccnc3)c(-c3ccccc3Cl)n2)cc1

>  <assignedCategory>
inactive

$$$$
>  <compound>
CC(=O)Nc1cccc(NC(=S)Nc2ccc(F)c(Cl)c2)c1

>  <assignedCategory>
inactive

$$$$
>  <compound>
CCN1CCN(Cc2nc3c(c(=O)n(C)c(=O)n3C)n2CCc2ccccc2)CC1

>  <assignedCategory>
inactive

$$$$
>  <compound>
O=C(N/N=C\c1ccc([N+](=O)[O-])o1)C1COc2ccccc2O1 (stereo not given)

>  <assignedCategory>
inactive

$$$$
>  <compound>
CC(NS(=O)(=O)c1ccc(Br)cc1)C(c1cccs1)N1CCOCC1 (stereo not given)

>  <assignedCategory>
inactive

$$$$
>  <compound>
Cc1ccc2cccc(OCC(=O)c3cc(C)n(Cc4ccco4)c3C)c2n1

>  <assignedCategory>
inactive

$$$$
>  <compound>
Cn1c(=S)n(/N=C/c2ccc3c(c2)OCO3)c2ccccc21

>  <assignedCategory>
inactive

$$$$
>  <compound>
O=C(NC1CCCCC1)C1CCN(S(=O)(=O)c2cccs2)CC1

>  <assignedCategory>
inactive

$$$$
>  <compound>
COc1ccc(OC)c(-n2c(=S)[nH]c3c(sc(=S)n3-c3ccccc3)c2=O)c1

>  <assignedCategory>
inactive

$$$$
>  <compound>
CCN(CC)c1nc(-c2ccccn2)nc(-c2ccccc2)c1C#N

>  <assignedCategory>
inactive

$$$$
>  <compound>
Cc1sc2ncnc(SCC(=O)N3CCN(C(=O)c4ccco4)CC3)c2c1C

>  <assignedCategory>
inactive

$$$$
>  <compound>
COc1ccc(C2C(C#N)=C(N)Oc3cc(C)n(CCN4CCOCC4)c(=O)c32)cc1OC (stereo not given)

>  <assignedCategory>
inactive

$$$$
>  <compound>
CCOC(=O)c1c(C)oc2c1c1c(c3ccccc32)OCN(Cc2cccnc2)C1

>  <assignedCategory>
active

$$$$
>  <compound>
COc1ccc(S(=O)(=O)NCCCCNS(=O)(=O)c2ccc(OC)cc2)cc1

>  <assignedCategory>
inactive

$$$$
>  <compound>
CCOC(=O)c1c(C)oc2c1c(C(c1cccnc1)N1CCOCC1)c(O)c1ccccc12 (stereo not given)

>  <assignedCategory>
active

$$$$
>  <compound>
c1ccc(Nc2ccc3c4c(cccc24)CC3)cc1

>  <assignedCategory>
inactive

$$$$
>  <compound>
O=C(COc1cccnc1[N+](=O)[O-])NCc1cccs1

>  <assignedCategory>
inactive

$$$$
>  <compound>
Cc1ccc2cc(C=O)c(Cl)nc2c1

>  <assignedCategory>
inactive

$$$$
>  <compound>
Cc1cc(C(=O)COc2cccnc2[N+](=O)[O-])c(C)n1Cc1cccs1

>  <assignedCategory>
active

$$$$
